Molecular target: HLA-B*3501 (human)
Assay: competition vs 125I probe peptide, purified HLA
Measured IC50 of individual entries
Your answer should be a plain number; it is taken to be in nM.

1. FPRALIETSYI [MAGE2.274.F1I11 FPRALIETSYI]    3600
2. FPIGHLYIFA [MAGE3.170.F1 FPIGHLYIFA]    51
3. FPLWSQSI [MAGE3.77.F1 FPLWSQSI]    1010
4. FPTTMNYPL [MAGE3.71.F1 FPTTMNYPL]    4.5
5. FPRALVETSYI [MAGE3.274.F1I11 FPRALVETSYI]    5540

For the next question, use this binder.
Ask | What does the record list as IC50 for FPHISYPPI [MAGE3.296.F1I9 FPHISYPPI] ?
Reply | 360
